Where do these numbers come from? They come from a melting point compilation (Tetko et al.).

If the reported melting point equals or exceeds 100 °C, assign t. If not, assign f.

{"Compound": "Nc1c(C=Cc2ccccc2)ccc2c1C(=O)c1ccccc1C2=O", "Label": "t"}
{"Compound": "O=C(O)c1ccccc1O", "Label": "t"}
{"Compound": "CC(N)Cc1ccc(O)cc1 (configuration not stated)", "Label": "t"}
{"Compound": "CC(=O)c1ccc(-c2ccc(Br)cc2)cc1", "Label": "t"}
{"Compound": "N=C1NCCS1", "Label": "f"}
{"Compound": "COc1cccc2c(=O)c(=O)c12", "Label": "t"}
{"Compound": "O=[N+]([O-])c1ccc(NN=C2c3ccccc3C2Cl)c([N+](=O)[O-])c1 (configuration not stated)", "Label": "t"}
{"Compound": "CC12CCC(O)CC1CCC1C2C(=O)CC2(C)C1CCC2(O)C(=O)CO (configuration not stated)", "Label": "t"}

Here's the next entry for you.
Quick check: does OCC1OC(OCC2OC(O)C(O)C(O)C2O)C(O)C(O)C1O (configuration not stated) have melting point greater than or equal to 100 °C? f

###

If the reported melting point equals or exceeds 100 °C, assign yes (1). If not, assign no (0).

Study these solved cases before continuing.
{"Compound": "O=[N+]([O-])c1ccc(Nc2ccccc2)cc1", "Label": "yes (1)"}
{"Compound": "Nn1c(Cc2ccc(Cl)cc2)n[nH]c1=O", "Label": "yes (1)"}
{"Compound": "Brc1ccccc1Oc1ccccc1", "Label": "no (0)"}
{"Compound": "NC1=NC(=O)C(c2ccccc2)O1 (stereo not drawn)", "Label": "yes (1)"}

Here's the next entry for you.
Quick check: does CC(C)c1ccc(NC(=O)N(C)C)cc1 have melting point greater than or equal to 100 °C? yes (1)

###

Measured attribute: melting point (°C)
Give bare numbers, in °C.

Previously resolved entries follow.
{"Compound": "Brc1ccc(Br)s1", "Value measured": -6}
{"Compound": "CCC(Cc1c(I)cc(I)c(O)c1I)C(=O)O (stereo unspecified)", "Value measured": 147}

Provide the reported melting point of each entry below, same order.
1. NP(=O)(Oc1ccccc1)Oc1ccccc1
2. C=CCOC(=O)N1CCN(C(=O)OCC2c3ccccc3-c3ccccc32)C(C(=O)O)C1 (stereo unspecified)
3. COc1cc(C=CC(=O)O)ccc1OCc1ccccc1
4. Cc1c(/N=C/c2cc(Br)cc(Br)c2O)c(=O)n(-c2ccccc2)n1C
5. O=C1N(c2ccccc2)C(=O)[C@@]2(Cl)C(c3ccccc3)(c3ccccc3)C[C@@]12Cl
6. CCCCC(CC)COP(=O)(Oc1ccccc1)Oc1ccccc1 (stereo unspecified)
7. CC1(C)CCC2(C)CC=C3C(C)(CCC4C3(C)CCC3C(C)(C)C(O)CCC43C)C2C1 (stereo unspecified)
8. O=C(c1ccccc1)c1ccc(OCc2ccccc2)cc1

[149, 63, 192, 228, 160, -54, 284, 82]

Provide the reported melting point of each entry below, same order.
1. Clc1c2ccccc2cc2ccccc12
2. CCCCCCCCCCCCCN

104
27.4

###

If the reported melting point equals or exceeds 100 °C, assign Y. If not, assign N.

Study these solved cases before continuing.
{"Compound": "Cc1cc2c(C#N)c3n(C)c4ccccc4n3c(=O)c2c(C)n1", "Label": "Y"}
{"Compound": "O=c1cccco1", "Label": "N"}
{"Compound": "Nc1c(F)ccc(Cl)c1F", "Label": "N"}
{"Compound": "CCC1=CCCC1=NNc1ccc([N+](=O)[O-])cc1[N+](=O)[O-]", "Label": "Y"}

Quick check: does CCCC(O)C(O)(CC)C1CCCCC1 (stereo not given) have melting point greater than or equal to 100 °C? N

Quick check: does CN(C)C(=S)Cl have melting point greater than or equal to 100 °C? N

Quick check: does c1ccc(-c2c[nH]cn2)cc1 have melting point greater than or equal to 100 °C? Y

Quick check: does C=CCC1(C2C=CCCC2)C(=O)NC(=S)NC1=O (stereo not given) have melting point greater than or equal to 100 °C? Y

Quick check: does CC1COC(Cn2cncn2)(c2ccc(Oc3ccc(Cl)cc3)cc2Cl)O1 (stereo not given) have melting point greater than or equal to 100 °C? N

Quick check: does COc1ccccc1N1CCN(CCCC(=O)c2ccc(F)cc2)CC1 have melting point greater than or equal to 100 °C? N

Quick check: does COC(=O)c1cc(Br)ccc1N have melting point greater than or equal to 100 °C? N

Quick check: does COc1cc(CC2c3cc(OC)c(OC)cc3CCN2C)c(Oc2cc3c(cc2OC)-c2c(OC)c(OC)cc4c2C(C3)N(C)CC4)cc1OC (stereo not given) have melting point greater than or equal to 100 °C? Y

Quick check: does O=C(O)C[C@@H](NC(=O)OCC1c2ccccc2-c2ccccc21)c1ccc(Br)cc1 have melting point greater than or equal to 100 °C? Y

Quick check: does ClCCc1ccc(CCCl)cc1 have melting point greater than or equal to 100 °C? N
